Species: Rattus norvegicus
Assay: Relative binding affinity to 5-lipoxygenase and cyclooxygenase
measured-property: IC50 ratio

P = CC(C)Cc1ccc(C(C)C(=O)N(C)O)cc1 (stereo not given)
Q = COc1ccc2c(c1)c(CC(=O)NO)c(C)n2C(=O)c1ccc(Cl)cc1
R = CC(C)Cc1ccc(C(C)C(=O)NO)cc1 (stereo not given)
Task: Put the entries in order of IC50 ratio, starting with the largest number. // ordering of labels required in reply
Output: Q, R, P
(Q: 6.8, R: 2, P: 0.06)

---

Target: UniProt P12527
Test: Inhibition of 5-lipoxygenase in intact RBL-1 cell line
Type: cell-based
Settings: read-out: IC50
pIC50: −log10 of the molar value.
measured-property: pIC50

compound: CONC(=O)CC1=C(C)/C(=C/c2ccc([S+](C)[O-])cc2)c2ccc(F)cc21 (stereo unspecified)
pIC50: 4.59

1 = CC(C)Cc1ccc(C(C)C(=O)NO)cc1 (stereo unspecified)
2 = CC(C)Cc1ccc(C(C)C(=O)N(C)O)cc1 (stereo unspecified)
Task: Quick check, higher pIC50 between 1 and 2 ? API: response body contains the label of the selected item.
Output: 2
(2: 5.92, 1: 4.70)

---

Molecular target: Polyunsaturated fatty acid 5-lipoxygenase (Rattus norvegicus, UniProt P12527)
Sequence (P12527 whole entry): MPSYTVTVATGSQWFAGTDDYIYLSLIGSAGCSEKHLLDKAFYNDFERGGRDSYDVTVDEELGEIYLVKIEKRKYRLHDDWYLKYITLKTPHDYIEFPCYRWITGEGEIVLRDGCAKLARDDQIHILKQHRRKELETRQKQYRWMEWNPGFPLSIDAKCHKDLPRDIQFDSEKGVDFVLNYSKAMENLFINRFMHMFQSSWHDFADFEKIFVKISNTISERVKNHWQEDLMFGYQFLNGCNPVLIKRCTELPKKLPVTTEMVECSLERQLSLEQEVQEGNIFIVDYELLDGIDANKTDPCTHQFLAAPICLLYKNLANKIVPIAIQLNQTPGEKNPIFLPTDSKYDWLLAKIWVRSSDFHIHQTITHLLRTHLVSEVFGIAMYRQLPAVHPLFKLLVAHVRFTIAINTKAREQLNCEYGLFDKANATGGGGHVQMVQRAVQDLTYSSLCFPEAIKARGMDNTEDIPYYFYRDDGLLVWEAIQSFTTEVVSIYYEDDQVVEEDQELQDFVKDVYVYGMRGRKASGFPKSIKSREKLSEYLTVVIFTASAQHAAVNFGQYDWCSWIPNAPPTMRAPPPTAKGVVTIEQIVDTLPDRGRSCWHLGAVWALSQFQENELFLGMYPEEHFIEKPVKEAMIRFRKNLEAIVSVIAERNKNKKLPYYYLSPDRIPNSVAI
Test: Inhibition of 5-lipoxygenase in intact RBL-1 cell line
Assay type: cell-based
Details: read-out: IC50
measured-property: IC50

Solved entries:
molecule: CC1=C(CC(=O)O)c2cc(F)ccc2/C1=C\c1ccc([S+](C)[O-])cc1 (stereo not drawn)
IC50: > 100 µM

molecule: CONC(=O)C(C)c1ccc(CC(C)C)cc1 (stereo not drawn)
IC50: > 32 µM

Proceeding to the next molecule to report its IC50.
Notebook: COc1ccc2c(c1)c(CC(=O)O)c(C)n2C(=O)c1ccc(Cl)cc1 [INDOMETHACIN] , IC50 read as > 100 µM
